- assayed-system: T1, Ara h 2 (peanut, UniProt Q6PSU2 22-172)
- T1 construct: also called full length Ara h 2
- T1 sequence (looked up): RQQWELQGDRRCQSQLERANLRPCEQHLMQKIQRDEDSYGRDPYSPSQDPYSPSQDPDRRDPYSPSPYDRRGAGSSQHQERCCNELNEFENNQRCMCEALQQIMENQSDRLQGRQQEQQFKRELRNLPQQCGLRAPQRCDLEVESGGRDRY
- protocol-notes: competition ELISA on coated Ara h 2; competitor: Patient G serum IgE
measured-metric: % inhibition of IgE binding (%)
Reply numerically in %, unit not repeated.

Exercise: Give a short answer stating reported % inhibition of IgE binding for h12G10 (antibody, human IgG1, V domains shown, Recombinant human IgG; also called hMAb 12G10) VH: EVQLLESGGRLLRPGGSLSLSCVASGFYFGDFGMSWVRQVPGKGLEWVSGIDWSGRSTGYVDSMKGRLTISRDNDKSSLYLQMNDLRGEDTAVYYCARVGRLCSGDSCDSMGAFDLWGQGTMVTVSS VL: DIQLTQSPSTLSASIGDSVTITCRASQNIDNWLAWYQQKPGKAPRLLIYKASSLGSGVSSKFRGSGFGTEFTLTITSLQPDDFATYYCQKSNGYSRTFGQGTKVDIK .
Solution: 25.7

Continuing:
Exercise: Give a short answer stating reported % inhibition of IgE binding for h37D5 (antibody, V domains shown, Recombinant human IgG; also called hMAb 37D5) VH: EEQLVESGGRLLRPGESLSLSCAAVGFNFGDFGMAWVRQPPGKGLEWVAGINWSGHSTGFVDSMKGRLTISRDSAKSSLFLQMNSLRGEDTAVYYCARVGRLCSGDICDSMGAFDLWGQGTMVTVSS VL: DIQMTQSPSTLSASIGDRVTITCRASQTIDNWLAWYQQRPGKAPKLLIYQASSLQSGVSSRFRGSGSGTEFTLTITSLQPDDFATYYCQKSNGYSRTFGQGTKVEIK .
Solution: 45.3

Exercise: Give a short answer stating reported % inhibition of IgE binding for h32B10 (antibody, V domains shown, Recombinant human IgG; also called hMAb 32B10) VH: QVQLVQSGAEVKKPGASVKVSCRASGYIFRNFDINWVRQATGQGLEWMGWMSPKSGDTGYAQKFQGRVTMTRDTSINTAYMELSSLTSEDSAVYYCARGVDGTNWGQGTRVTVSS VL: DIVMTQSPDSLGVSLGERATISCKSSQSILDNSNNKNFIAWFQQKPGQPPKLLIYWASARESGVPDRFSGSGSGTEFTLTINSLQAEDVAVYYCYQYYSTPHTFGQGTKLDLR .
Solution: 32.8

Exercise: Give a short answer stating reported % inhibition of IgE binding for h4B2 (antibody, V domains shown, Recombinant human IgG; also called hMAb 4B2) VH: QVQLQEAGPRLVKPSQTLSVTCTVSGASITIGGYYWSWIRQHPGKGLEWMGYIYSNGRTYYNPSLKSRIAMSIDTSKNQFSLKLTSVTAADTAIYFCAREAWETPLWGQGTLITVSS VL: DIQMTQSPSSLSASVGDRVTITCQANQDIVNSLNWFQHKPGTAPKVLIYDASKLETGVPSRFSGSGSGTHFTFTISGLQPEDFATYFCQQYENLPHTFGQGTKLEIR .
Solution: 31.8
